This collection of values is drawn from the supplement of paper PMC8728848.

target: Fuc(a1-2)[GalNAc(a1-3)]Gal(b1-4)GlcNAc(b1-3)Gal(b1-4)GlcNAc; experiment: glycan array binding signal (z-score within array); higher = stronger binding; conditions: glycan notation: IUPAC condensed, linker removed
Only a selection was taken, and the strongest signals are over-represented in it overall.
reported_property: glycan array binding signal (z-score)
Reply: number alone, nothing else.

Completed entries (count: 4):
INSERT INTO assay_data (binder, observed_value) VALUES
  ('Tachylectin-2 (Tachypleus tridentatus), TAL2_TACTR (protein) VGGESMLRGVYQDKFYQGTYPQNKNDNWLARATLIGKGGWSNFKFLFLSPGGELYGVLNDKIYKGTPPTHDNDNWMGRAKKIGNGGWNQFQFLFFDPNGYLYAVSKDKLYKASPPQSDTDNWIARATEIGSGGWSGFKFLFFHPNGYLYAVHGQQFYKALPPVSNQDNWLARATKIGQGGWDTFKFLFFSSVGTLFGVQGGKFYEDYPPSYAHDNWLARAKLIGNGGWDDFRFLFF', 4.29),
  ('EUL D1A second (Oryza sativa) (protein) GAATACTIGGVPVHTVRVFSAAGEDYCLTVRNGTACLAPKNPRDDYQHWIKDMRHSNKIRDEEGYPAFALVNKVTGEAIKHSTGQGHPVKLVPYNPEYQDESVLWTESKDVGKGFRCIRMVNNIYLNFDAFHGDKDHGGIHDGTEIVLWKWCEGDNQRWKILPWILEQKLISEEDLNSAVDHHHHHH', -0.086),
  ('Clec12b (Mus musculus), Q149M0 (protein) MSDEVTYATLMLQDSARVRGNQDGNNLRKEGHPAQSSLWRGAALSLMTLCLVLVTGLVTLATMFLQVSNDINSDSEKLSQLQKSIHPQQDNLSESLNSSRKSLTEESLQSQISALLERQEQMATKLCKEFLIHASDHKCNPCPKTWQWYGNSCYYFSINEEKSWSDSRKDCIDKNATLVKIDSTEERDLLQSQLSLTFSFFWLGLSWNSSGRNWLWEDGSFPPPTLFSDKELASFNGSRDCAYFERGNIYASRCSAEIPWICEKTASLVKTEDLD', -0.749),
  ('DC-ASGPR-short (Homo sapiens) (protein) MTRTYENFQYLENKVKVQGFKNGPLPLQSLLQRLRSGPCHLLLSLGLGLLLLVIICVVGFQNSKFQRDLVTLRTDFSNFTSNTVAEIQALTSQGSSLEETIASLKAEVEGFKQERQAVHSEMLLRVQQLVQDLKKLTCQVATLNNNASTEGTCCPVNWVEHQDSCYWFSHSGMSWAEAEKYCQLKNAHLVVINSREEQNFVQKYLGSAYTWMGLSDPEGAWKWVDGTDYATGFQNWKPGQPDDWQGHGLGGGEDCAHFHPDGRWNDDVCQRPYHWVCEAGLGQTSQESH', 0.335);

# context switch: different binder, same glycan array binding signal (z-score)
Prompt: May I ask what glycan array binding signal (z-score) has been recorded for CpGal16 (Clavelina picta) (protein) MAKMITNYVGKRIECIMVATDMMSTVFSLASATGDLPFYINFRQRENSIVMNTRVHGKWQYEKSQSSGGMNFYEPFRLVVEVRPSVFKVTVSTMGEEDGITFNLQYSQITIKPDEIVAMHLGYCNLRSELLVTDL ?
Response: 2.86
